Molecular target: T1, hCMV gH, gL, UL128, UL130 and UL131A co-expressed in HEK293T cells (human cytomegalovirus, UniProt P12824 24-743; P16832 31-278; P16837 1-171; P16772 1-214)
T1 construct: whole, on cells; also called gH + gL + UL128 + UL130 + UL131A; gH/gL/UL128-130 complex
Experiment: cell cross-competition, 20x excess; competitor 1F11-biotin
measured quantity: Inhibition of binding (%)

binder="9I6 (antibody, V domains shown, human IgG mAb; also called 9I6-biotin; 916) VH: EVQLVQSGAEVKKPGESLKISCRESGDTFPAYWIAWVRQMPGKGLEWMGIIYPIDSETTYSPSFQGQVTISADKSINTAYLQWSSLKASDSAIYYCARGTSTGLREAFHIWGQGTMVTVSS VL: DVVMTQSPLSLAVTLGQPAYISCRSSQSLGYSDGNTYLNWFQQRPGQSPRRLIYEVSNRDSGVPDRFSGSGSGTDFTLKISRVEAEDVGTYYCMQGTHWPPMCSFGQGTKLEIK" result_unit=% numeric_result=0
